Tested on: FB
Experiment: Euclidean distance of Cell Painting phenotypic profile (signed KS, 77 features) to DMSO centroid (dimensionless distance); 5 or 10 uM (library dependent); higher = stronger phenotypic change vs DMSO (phenoactivity)
Details: 48 h
Counter-ions that a name gives are not always drawn.
value kind: Euclidean distance
A bare number is all that is needed in reply.

Data request: For the compound shown here, CC(C)(C)[C@@H]1NC(=O)O[C@@H]2CCC[C@H]2OC/C=C/C(F)(F)c2nc3ccccc3nc2O[C@@H]2C[C@@H](C(=O)N[C@]3(C(=O)NS(=O)(=O)C4(C)CC4)C[C@H]3C(F)F)N(C2)C1=O [Glecaprevir] , give the reported Euclidean distance.
Data returned: 0.806

Data request: For the compound shown here, CNCCC(Oc1ccc(C(F)(F)F)cc1)c1ccccc1 (stereo unspecified) [Fluoxetine HCl] , give the reported Euclidean distance.
Data returned: 1.78

Data request: For the compound shown here, CCCNCC(O)COc1ccccc1C(=O)CCc1ccccc1 (stereo unspecified) [Propafenone HCl] , give the reported Euclidean distance.
Data returned: 1.36

Data request: For the compound shown here, CCOC(=O)CCC(=O)O[C@H]1[C@H](O[C@@H]2[C@@H](C)[C@H](O[C@H]3C[C@@](C)(OC)[C@@H](O)[C@H](C)O3)[C@@H](C)C(=O)O[C@H](CC)[C@@](C)(O)[C@H](O)[C@@H](C)C(=O)[C@H](C)C[C@@]2(C)O)O[C@H](C)C[C@@H]1N(C)C [Erythromycin Ethylsuccinate] , give the reported Euclidean distance.
Data returned: 1.04

Data request: For the compound shown here, CN(Cc1cnc2nc(N)nc(N)c2n1)c1ccc(C(=O)N[C@@H](CCC(=O)O)C(=O)O)cc1 [Methotrexate] , give the reported Euclidean distance.
Data returned: 0.72

Data request: For the compound shown here, C=CC(=O)Nc1cccc(Nc2nc(Nc3ccc(Oc4ccnc(C(=O)NC)c4)cc3)ncc2F)c1 , give the reported Euclidean distance.
Data returned: 2.2

----------
Test system: 786-O
Test: Euclidean distance of Cell Painting phenotypic profile (signed KS, 77 features) to DMSO centroid (dimensionless distance); 5 or 10 uM (library dependent); higher = stronger phenotypic change vs DMSO (phenoactivity)
Conditions: 48 h
value kind: Euclidean distance
A bare number is all that is needed in reply.

See these solved cases before continuing.
1. C[n+]1cc2c3c(ccc2c2ccc4cc5c(cc4c21)OCO5)OCO3 [Sanguinarine chloride] : 5.34
2. CC1(C)S[C@@H]2[C@H](NC(=O)[C@H](N)c3ccccc3)C(=O)N2[C@H]1C(=O)OCOC(=O)[C@@H]1N2C(=O)C[C@H]2S(=O)(=O)C1(C)C [Sultamicillin] : 1.46
3. N#Cc1cc(CN2CCC(Nc3ncnc4sc(Cl)cc34)CC2)ccc1F : 0.974

Data request: For the molecule shown here, CC(Cc1ccc(O)c(O)c1)C(C)Cc1ccc(O)c(O)c1 (configuration not stated) [Nordihydroguaiaretic acid (NDGA)] , give the reported Euclidean distance.
Data returned: 1.19

Data request: For the molecule shown here, C=C[C@@H]1C[C@]1(NC(=O)[C@@H]1C[C@@H](Oc2ncc(OC)c3ccc(Cl)cc23)CN1C(=O)[C@@H](NC(=O)OC(C)(C)C)C(C)(C)C)C(=O)NS(=O)(=O)C1CC1 , give the reported Euclidean distance.
Data returned: 1.27

Data request: For the molecule shown here, CCCCC[C@H](O)/C=C/[C@H]1[C@H](O)CC(=O)[C@@H]1CCCCCCC(=O)O , give the reported Euclidean distance.
Data returned: 1.36

Data request: For the molecule shown here, COc1ccc(C2OCC3C(c4cc(OC)c(OC)c(OC)c4)OCC23)cc1OC (configuration not stated) , give the reported Euclidean distance.
Data returned: 0.904

Data request: For the molecule shown here, CCCCCCCCCCCCCCCCCCOCC(O)CO (configuration not stated) , give the reported Euclidean distance.
Data returned: 0.871

Data request: For the molecule shown here, Oc1c(Cl)cc(Cl)cc1Sc1cc(Cl)cc(Cl)c1O , give the reported Euclidean distance.
Data returned: 0.758

Data request: For the molecule shown here, CCOc1nc2cccc(C(=O)O)c2n1Cc1ccc(-c2ccccc2-c2nnn[nH]2)cc1 , give the reported Euclidean distance.
Data returned: 2.07

Data request: For the molecule shown here, Cn1nc(C(C)(C)C)cc1C(=O)N[C@@H](Cc1cccc(Cl)c1)C(=O)NCC#N , give the reported Euclidean distance.
Data returned: 1.97

Data request: For the molecule shown here, CC[C@@H](C)Nc1cc(C(=O)N[C@H]2C[C@H]3CC[C@@H](C2)N3c2ccc(C(=O)C3CC3)cn2)c(C)cc1C(N)=O , give the reported Euclidean distance.
Data returned: 3.1

----------
Listing of entries alongside the reported Euclidean distance.
Test system: DU145
Assay: Euclidean distance of Cell Painting phenotypic profile (signed KS, 77 features) to DMSO centroid (dimensionless distance); 5 or 10 uM (library dependent); higher = stronger phenotypic change vs DMSO (phenoactivity)
Conditions: 48 h
Structures can show the parent of a compound that is named as a salt.
A bare number is all that is needed in reply.

See these solved cases before continuing.
1) O=C1N=C(O)NC1(c1ccccc1)c1ccccc1 [Phenytoin sodium] : 0.884
2) O=C(Nc1cnn2ccc(N3CCC[C@@H]3c3cc(F)ccc3F)nc12)N1CC[C@H](O)C1 [Larotrectinib (LOXO-101) sulfate] : 1.05
3) Cc1cccc(CC(=O)N2CCc3c2ccc(-c2cn(C)c4ncnc(N)c24)c3F)n1 : 1.84
4) CC(C[N+](C)(C)C)OC(N)=O (centres undefined) [Bethanechol chloride] : 0.866
5) Cc1cc(NC(=O)Nc2ccc(N(C)C)cc2)c2cc(F)cc(F)c2n1 : 0.704

Data request: Test system DU145; read-out Euclidean distance; what value for N#CC(=C(/N)Sc1ccccc1N)/C(C#N)=C(\N)Sc1ccccc1N ?
Data returned: 0.907

Data request: Test system DU145; read-out Euclidean distance; what value for NC(=O)[C@@H]1CC[C@@H]2CN1C(=O)N2OS(=O)(=O)O [Avibactam sodium] ?
Data returned: 0.722

Data request: Test system DU145; read-out Euclidean distance; what value for Clc1ccc2nsnc2c1NC1=NCCN1 ?
Data returned: 0.815

Data request: Test system DU145; read-out Euclidean distance; what value for C[C@H]1O[C@@H](O[C@H]2CC[C@@]3(C)[C@@H](CC[C@]4(C)[C@@H]3C=C[C@]35OC[C@@]6(CCC(C)(C)C[C@H]63)[C@@H](O)C[C@]54C)[C@]2(C)CO)[C@H](O)[C@@H](O[C@@H]2O[C@H](CO)[C@@H](O)[C@H](O)[C@H]2O)[C@H]1O ?
Data returned: 2.17

----------
System: FB
Assay: Euclidean distance of Cell Painting phenotypic profile (signed KS, 77 features) to DMSO centroid (dimensionless distance); 5 or 10 uM (library dependent); higher = stronger phenotypic change vs DMSO (phenoactivity)
Settings: 48 h
Counter-ions that a name gives are not always drawn.
value kind: Euclidean distance
A bare number is all that is needed in reply.

See these solved cases before continuing.
1) C[C@]12CC[C@@H]3c4ccc(O)cc4CC[C@H]3[C@@H]1C[C@@H](O)[C@@H]2O : 0.871
2) C#C[C@]1(O)CC[C@H]2[C@@H]3CCC4=CCCC[C@@H]4[C@H]3C(=C)C[C@@]21CC : 0.753
3) Cc1ccc(NC(=O)c2ccc(CN3CCN(C)CC3)cc2)cc1Nc1nccc(-c2cccnc2)n1 [Imatinib Mesylate (STI571)] : 2.28
4) CC(C(=O)O)c1ccc(CC2CCCC2=O)cc1 (configuration not stated) : 1.12
5) C[C@@H](O)[C@H]1C(=O)N2C(C(=O)O)=C([C@H]3CCCO3)S[C@H]12 [Faropenem Sodium] : 0.587

Data request: For the molecule shown here, CN(C)/N=N/c1[nH]cnc1C(N)=O , give the reported Euclidean distance.
Data returned: 1.25

Data request: For the molecule shown here, CC[C@]1(O)C[C@@H]2CN(CCc3c([nH]c4ccccc34)[C@@](C(=O)OC)(c3cc4c(cc3OC)N(C)[C@H]3[C@@](O)(C(=O)OC)[C@H](OC(C)=O)[C@]5(CC)C=CCN6CC[C@]43[C@@H]65)C2)C1 [Vinblastine sulfate] , give the reported Euclidean distance.
Data returned: 3.49

Data request: For the molecule shown here, Cc1cc2c(C(N)=O)cccc2n1-c1nc2c(c(NCc3ccccc3)n1)COCC2 , give the reported Euclidean distance.
Data returned: 7.18

Data request: For the molecule shown here, C#C[C@]1(O)CC[C@H]2[C@@H]3CCc4cc(OC5CCCC5)ccc4[C@H]3CC[C@@]21C , give the reported Euclidean distance.
Data returned: 1.48

Data request: For the molecule shown here, O=c1cc(N2CCOCC2)oc2c(-c3ccccc3)cccc12 , give the reported Euclidean distance.
Data returned: 1.79

Data request: For the molecule shown here, O=C1C(=O)N(Cc2ccc(Cl)c(Cl)c2)c2ccccc21 , give the reported Euclidean distance.
Data returned: 1.07

Data request: For the molecule shown here, CN(C)CCc1c[nH]c2ccc(C[C@H]3COC(=O)N3)cc12 , give the reported Euclidean distance.
Data returned: 0.876

Data request: For the molecule shown here, Nc1nc(=O)[nH]cc1F , give the reported Euclidean distance.
Data returned: 1.16

Data request: For the molecule shown here, CCN(CC)CCCC(C)Nc1c2ccc(Cl)cc2nc2ccc(OC)cc12 (configuration not stated) [Quinacrine Dihydrochloride Dihydrate] , give the reported Euclidean distance.
Data returned: 6.12

Data request: For the molecule shown here, O=C(c1ccc(NS(=O)(=O)c2cccc3cccnc23)cc1)N1CCN(CC2CC2)CC1 , give the reported Euclidean distance.
Data returned: 1.04

Data request: For the molecule shown here, CCOC(=O)C(C)(C)Oc1ccc(Cl)cc1 [Clofibrate] , give the reported Euclidean distance.
Data returned: 1.41

Data request: For the molecule shown here, CCOC(=O)c1c(N)sc2c1CCN(Cc1ccccc1)C2 [Tinoridine hydrochloride] , give the reported Euclidean distance.
Data returned: 1.13
